Assign pIC50 to each entry below.
TESTED_ON: HLA-DR DRB1*0301 (DR3) (Homo sapiens, UniProt P01903+P01911, A100K/A102G/A103R/A169T/F55Y/I96L/K41T/L162R/M171V/P40S/Q125H/Q178H/Q39Y/R42S/S66N/T106N/T262R/W38E/Y61H)
Sequence (P01903 26-254 limits assumed, other chains not shown): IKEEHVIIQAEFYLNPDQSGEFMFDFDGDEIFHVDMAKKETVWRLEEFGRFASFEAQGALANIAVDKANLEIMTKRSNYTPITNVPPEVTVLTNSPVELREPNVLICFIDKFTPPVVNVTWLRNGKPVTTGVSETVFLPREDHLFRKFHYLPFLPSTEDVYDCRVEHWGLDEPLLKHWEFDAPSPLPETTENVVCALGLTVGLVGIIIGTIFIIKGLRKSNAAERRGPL
TEST: biochemical
Format: binding
Give bare numbers, as −log10 of the molar value.

* CSCC[C@H](NC(=O)CNC(=O)CNC(=O)[C@H](CCCNC(=N)N)NC(=O)[C@@H](NC(=O)[C@H](CCC(N)=O)NC(=O)[C@H](C)NC(=O)[C@@H](NC(=O)[C@@H](NC(=O)[C@H](CC(C)C)NC(=O)[C@H](Cc1c[nH]cn1)NC(=O)[C@H](Cc1ccc(O)cc1)NC(=O)[C@H](CCCCN)NC(=O)[C@H](Cc1ccccc1)NC(=O)[C@@H](N)CCSC)[C@@H](C)O)C(C)C)C(C)C)C(=O)O | 4.54

Kindly consider the entry below.
Identify measured pIC50 associated with CC[C@H](C)[C@H](N)C(=O)N[C@@H](CCCNC(=N)N)C(=O)N[C@H](C(=O)N[C@@H](CC(C)C)C(=O)N[C@@H](CCC(=O)O)C(=O)N[C@@H](CC(=O)O)C(=O)N[C@@H](CC(C)C)C(=O)N[C@@H](CC(C)C)C(=O)N[C@@H](CCSC)C(=O)NCC(=O)N[C@H](C(=O)N[C@@H](CC(C)C)C(=O)NCC(=O)N[C@H](C(=O)N[C@H](C(=O)O)C(C)C)[C@@H](C)CC)[C@@H](C)O)[C@@H](C)O
5.28
